Listed here: items and their measured pIC50.
Molecular target: T1, human TSLP recombinant protein (human, UniProt Q969D9 29-159, biotinylated in the blocking and cell-binding assays (sites not given))
T1 construct: also called biotinylated human TSLP protein
Assay: competition ELISA, biotin-human TSLP to coated human TSLPR-Fc
The quantity pIC50 is defined as the negative base-10 logarithm of the molar concentration.

- 79D6 chimeric antibody (antibody, V domains shown) VH: QVQLQQSGAELVMPGASVKMSCKASGYTFTGYWMHWVKQRPGQGLEWIGTIDNSDSDTTYNQKFKGKVTLTVDESSSTAYMQLSSLTSEDSAVYYCARSVDGYLDYWGQGTTLTVSS VL: DIQMIQSPASLSASVGETVTITCRASENIYSYLAWYQQIQGKSPQLLVYYAKTLPEGVPSRFSGSGSGTQFSLKINSLQPEDFGSYYCQHHYGTPWTFGGGTKLEIK: 8.87
- 80E11 chimeric antibody (antibody, V domains shown) VH: QVQLQQSGPQLVRPGASVKISCKASGYSFTSYWMHWVKQRPGQGLEWIGVIDPSDSETILNQKFKDKATLTVDKSSSTAYMQFSSPTSEDSAVYYCARSLDGYYDYWGQGTTLTVSS VL: DIQMTQSPASLSASVGETVTITCRAGENIYSYLAWYQQKQGKSPQLLVYNAKTLAEGVPSRFSGSASGTQFSLKINSLQPEDFGSYYCQHFWGTPWAFGGGTRLEIK: 8.74
- 39G5-H8 chimeric antibody (antibody, V domains shown) VH: QVQLLQSGPQLVRPGASVKISCKASGYSFISYWIHWVKQRPGQGLEWIGIIDPSDSDTSLNQKFKDKATLTVDKSSTTAYIQLSSPTSEDSAVYYCARSLDGYYDYWGQGTTLTVSS VL: DIQMTQSPASLSASVGETVTITCRASENIYSYLAWYQQKQGKSPQLLVYNARTLPEGVPSRFSGSGSGTQFSLKINSLQPEDFGIYYCQHHYTTPWTFGGGTKLEIK: 8.47

pIC50 reported for this binder 76A8 chimeric antibody (antibody, V domains shown) VH: QVQLQQSGPQLVRPGASVKISCKASGYSFTSYWMHWVKQRPGQGLEWIGLIDPSDSETGLNQRFKDKATLTVDNPSSTAYMQLSSPTSEDSAVYYCARSLDGYYDYWGQGTTLTVSS VL: DIQMIQSPASLSASVGETVTITCRASGNIHNYLAWYQQKQGKSPQLLVYNAKTLADGVPSRFSGSGSGTQYSLKINSLQPEDFGSYYCQHFWSTPWTFGGGTRLEIK : 8.85

Value of pIC50 reported for the binder 71G4 chimeric antibody (antibody, V domains shown) VH: QVQLQQSGAELVMPGASVKMSCKASGYTFTDYWMHWVKQRPGQGLEWIGTIDNSDSDTTYNQKFKGKVTLTVDESSSTAYMQLSSLTSEDSAVYYCARSVDGYLDYWGQGTTLTVSS VL: EIQMTQSPASLSASVGETVTITCRTSENIYSYLAWYQQKQGKSPQLLVYFAKTLTDGVPSRLSGSGSGTQFSLKINSLQPEDFGSYYCQHHYGTPWTFGGGTKLEIK is 8.82

The binder 80D12 chimeric antibody (antibody, V domains shown) VH: QVQLKQSGPQLVRPGASVKISCKASGYSFTSYWMHWVKQRPGQGLEWIGMIDPSDSETTLNQKFKDKATLTVDKSSTTAYMQLSSPTSEDSAVYYCARSLDGYYDYWGQGTTLTVSS VL: DVQMIQSPASLSASVGETVTITCRTSENIYSYLAWYQQKQGKSPQLLVYFAKTLTDGVPSRFSGSGSGTQFSLKINSLQPEDFGSYYCQHHYGTPWTFGGGTKLEIK showed pIC50 equal to 8.61

Measured pIC50, 80B12 chimeric antibody (antibody, V domains shown) VH: QVQLQQSGPQLVRPGASVKISCKASGYSFTTYWMHWVKQRPGQGLEWIGLIDPSDGEAGLNQNFKDKATLTVDISSRTAYMQISSPTSEDSAVYFCARSLDGYYDYWGQGTTLTVSS VL: DIQMTQSPASLSASVGETVTITCRASEDIYSYLAWYQQKQGKSPQLLVYNAKTLAEGVPSRFSGSGSGTQFSLKINSLQPEDFGSYYCQHFWSTPWTFGGGTKLELK : 8.59
